Taken from paper PMC5869772.

- assay.target: BATF;JUNB (human;human, UniProt Q16520;P17275 1-125;148-347, |)
- Sequence 1: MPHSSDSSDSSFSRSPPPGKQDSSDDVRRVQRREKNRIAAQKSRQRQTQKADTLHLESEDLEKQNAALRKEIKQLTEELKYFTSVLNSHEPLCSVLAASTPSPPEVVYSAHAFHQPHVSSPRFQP
- Sequence 2: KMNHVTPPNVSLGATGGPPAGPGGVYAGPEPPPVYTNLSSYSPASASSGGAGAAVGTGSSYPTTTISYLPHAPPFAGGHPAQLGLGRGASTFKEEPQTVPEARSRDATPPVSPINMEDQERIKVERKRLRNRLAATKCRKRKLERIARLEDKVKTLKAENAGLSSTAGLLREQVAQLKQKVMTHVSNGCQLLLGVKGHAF
- assay.protocol: Spec-seq (EMSA and sequencing of bound and unbound bands); 100 nM BATFx-JUNB, 1 uM dsDNA library, 50 mM K acetate, 20 mM Tris-acetate, 10 mM Mg acetate, 100 ug/ml BSA, pH 7.9, 10% glycerol, 30 min on ice; native 9% PAGE at 4 C; low values mean tight binding
- recorded.conditions: protein: recombinant;recombinant; tags: N-terminal mCherry-TEV, cleaved off;C-terminal 6His; copies: 1;1; dsDNA, one strand shown
Hi, to clarify the labels: met covers binding signal from -0.06 kT upward, not met covers anything below -0.06 kT.

chain.sequence: GATAGTCTCATTTTCACCCCGTGAAATGGAGTCATTGTTCCATTACAGTATCTGT
label.value: not met

-- ask Check this sequence for binding signal at or above -0.06 kT: GATAGTCTCATTTTCACCCCGTGAAATGACGCACTTGTTCCATTACAGTATCTGT
-- reply not met

-- ask Is it the case that GATAGTCTCATTTTCACCCCGTGAAATGACTCTTTTGTTCCATTACAGTATCTGT has binding signal reaching or exceeding -0.06 kT?
-- reply met

-- ask # check: binding signal of GATAGTCTCATTTTCACCCCGTGAAATGAGGCACTTGTTCCATTACAGTATCTGT is greater than or equal to -0.06 kT
-- reply met

-- ask Please check the record GATAGTCTCATTTTCACCCCGTGAAACTGTGTCATTGTTCCATTACAGTATCTGT and state if its binding signal is at or above -0.06 kT.
-- reply not met

-- ask Item GATAGTCTCATTTTCACCCCGTGAAATGAGTCTGTTGTTCCATTACAGTATCTGT with binding signal of -0.06 kT or above?
-- reply met

---

Quick list: binding signal per entry.
- assay.target: BATF2 (bZIP);JUNB (human;human, UniProt Q8N1L9;P17275 1-142;148-347, |)
- Sequence 1: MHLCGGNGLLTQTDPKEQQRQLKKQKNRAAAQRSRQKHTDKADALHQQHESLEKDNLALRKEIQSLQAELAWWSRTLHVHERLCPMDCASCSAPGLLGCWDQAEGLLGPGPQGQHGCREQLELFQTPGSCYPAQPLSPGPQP
- Sequence 2: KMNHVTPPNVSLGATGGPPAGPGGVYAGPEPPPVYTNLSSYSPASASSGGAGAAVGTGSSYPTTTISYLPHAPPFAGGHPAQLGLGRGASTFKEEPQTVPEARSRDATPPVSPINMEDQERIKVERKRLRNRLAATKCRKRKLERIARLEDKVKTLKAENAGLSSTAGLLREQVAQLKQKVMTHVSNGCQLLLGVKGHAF
- assay.protocol: Spec-seq (EMSA and sequencing of bound and unbound bands); 100 nM BATFx-JUNB, 1 uM dsDNA library, 50 mM K acetate, 20 mM Tris-acetate, 10 mM Mg acetate, 100 ug/ml BSA, pH 7.9, 10% glycerol, 30 min on ice; native 9% PAGE at 4 C; low values mean tight binding
- recorded.conditions: protein: recombinant;recombinant; tags: N-terminal mCherry-TEV, cleaved off;C-terminal 6His; copies: 1;1; dsDNA, one strand shown
Reply numerically in kT, unit not repeated.

Worked cases, binding signal given:
chain.sequence: GATAGTCTCATTTTCACCCCGTGAAATGACTTAGTTGTTCCATTACAGTATCTGT
assay.target: BATF2 (bZIP);JUNB (human;human, UniProt Q8N1L9;P17275 1-142;148-347, |)
binding signal (kT): 0.47
--
chain.sequence: GATAGTCTCATTTTCACCCCGTGAAATGAGTCCGTTGTTCCATTACAGTATCTGT
assay.target: BATF2 (bZIP);JUNB (human;human, UniProt Q8N1L9;P17275 1-142;148-347, |)
binding signal (kT): 1.26
--
chain.sequence: GATAGTCTCATTTTCACCCCGTGAAATGACTCGGTTGTTCCATTACAGTATCTGT
assay.target: BATF2 (bZIP);JUNB (human;human, UniProt Q8N1L9;P17275 1-142;148-347, |)
binding signal (kT): 0.589

Entry GATAGTCTCATTTTCACCCCGTGAAATGACCCATTTGTTCCATTACAGTATCTGT , binding signal reported as 0.823

For record GATAGTCTCATTTTCACCCCGTGAAAAAGAGTCATTGTTCCATTACAGTATCTGT the listed binding signal is 0.233
